All figures here come from the nanobody polyreactivity screen of Harvey et al. (2022).

Assay notes: yeast display, Sf9 membrane polyspecificity reagent, FACS + sequencing; frameworks hold sequencing errors
Measured quantity: polyreactivity (PSR sort gate)

// below: answered sequences
Given `QVQLVESGGGLVQAGGSLRLSCAASGSIFPGNAMGWSRQAPGKEREFVAAISWSGGSTYADSVKGRFTISRDNAKNTVYLQINSVKPEDTAVYYCAAVRRYLKAAYGYWGQGTKVTVSS` , state its recorded polyreactivity (PSR sort gate).
low polyreactivity

Cool, now `QVQLVESGGGLVQAGGSLRLSCAASGSNFDAYAIGWYRQAPGKERELVASISIGGSTNYADSVKGRFTISRDNAKNTVYLQMNSLKPEDSAVYYCAAYVYYTYPSGTVYSVSYIYDYWGQGTQVTVSS`
low polyreactivity

Cool, now `QVQLVESGGGLVQAGGSLRLSCAASGSTFTHYAMGWYRQAPGKERELVAAISSGGSTYYADSVKGRFTISRDNAKNTVYLQMNILKPEDTAVYYCASDYYWHDWWYPHDYWGQGTQVTLSS`
low polyreactivity

Cool, now `QVQLVESGGGLVQAGGSLSLSCAASGITFGLYAMGWYRQATGKERELVAAITSGDRTYYADSVKGRFTISRDNAKNTVYLQMISLTPEDTAVNYCNAEAWWVYYYYGTYLAGSYYWGQGTQVTVSS`
high polyreactivity

Cool, now `QVQLVESGGGLVQAGGSLRLSCAASGITFPLYVMGWSRQAPGKERELVAAISASGGSTYADSVKGRFTISRDNAKNTVYLQMNSLKPEDTAVYYCNADVYVGYEYDYWGQGTQVTVSS`
low polyreactivity

Cool, now `QVQLVESGGGLVQAGGSLRLSCAPSGRTFYLNAMGWYRPAPGKERELVAAIRFSGGSTYYADSVKGRFTISRDNAKNTVYLQMNSLKPEDTAVYYCNAGPYLSLYPTVSEYGYWGQGTQVTVSS`
low polyreactivity

Cool, now `QDQLVESGGGIVQAGGSLRLSCAASGFTFHNNVMGWNRQAPGKERELVATISKSGGSTYYADSVKGRFTISRDNAKNTVYLQMNSLKPEDTAVYYCAGRYRDYGRYGYWGQGTQVTVSS`
high polyreactivity

Cool, now `QVQLVESGGGLVQAGGSLRLSCAASGRIFSTNAMGWYRQAPGKEWELVAAITRGVSTKYADSVKGRFTISRDNAKNTVYLQMNSLKPEDTAVYYCAARVVWGPESDYWGQGTQVTVSS`
low polyreactivity

Cool, now `QVQLVESGGGLVQAGGSLRLSCAASGNIFGVYAMGWYRQAPGKERELVAAITSGGTSTSYADSVKGRFTISRDNAKNTVYLQINSLKPEDTAVYYCATESSGKLSEYAYWGQGTQVTVSS`
low polyreactivity

Cool, now `QVQLVESGGGLVQAGGSLRLSCAASGIIIRYYAMGWYRQAPGKERELVADITTGGTTYYADSVKGRFTISRDNAKNTVYLQMNCLKPEDTAVYYCAAYYFPTYSKTYIYPFDYWGQGTQVTVSS`
low polyreactivity

More entries:
Given `QVQLVESGGGLVQAGGSLRLICAASGASFFDKDMGWYRQAPGKERELVAAAITARGGSTYYADSVKGRFTISRDNAKNTVYLQMNSLKPEDTAVYYCAAGRPGELDYWGQGTQVTVSS` , state its recorded polyreactivity (PSR sort gate).
low polyreactivity

Cool, now `QVQLVESGGGLVQAGGILRLSCAASGIIFDTNAMGWYRQAPGKERELVASISKRGGSTYYADSVKGRFTISRDNAKNTVYFQMNSLKPEDTAVYYCNALRRRLYHDDYWGQGTQVTVSS`
high polyreactivity

Cool, now `QVQLVESVGGLVQAGGSLRLSCAASGRTFYYYTMGWYRQAPGKEWELVAAISSTGNTYYADSVKGRFTISRDNAKNTVYLHMISLQPEDTAVYYCAALGYVKLLAQAYEYWGHGTQVTVSS`
high polyreactivity

Cool, now `QVQLVESGGGLVQAGGSLRLSCAASGFTFNFYAMGWYRQAPGKERELVASITSSGARTYYADSVKGRFTISRDNAKNTVYLQMNSLKPEDTAVYYCAARVYRYSASRAYDYWGQGTQVTVSS`
high polyreactivity

Cool, now `QVQLVESGGGLVQAGGSLRLSCAASGSTFGNYAMGWYRQAPGKERELVAAIRSRGGRTYYADSVKGRFTISRDYAKNTVYLQMNSLKPVDTAVYYCARDSRTGYYYWGQGTQVTVSS`
high polyreactivity

Cool, now `QVQLVESGGGLVQAGGRLRLSCAASGRTFHYYALGWYRQATGKERELVAVIRYSGGRTYYADTVKGRFTISRDNAKNTVYLQMNSLKPEDTAVYYCNKGRWRTDPPVYLIAFDYWGQGTQVTVSS`
low polyreactivity

Cool, now `QVQLVESGGGLVQAGGSLRLSCAPSGIIFPTYAMGWYRQAPGKERELVAAIRWNGGSTYYADSVKGRFTISRDNAKNTVFLQMTILKPEDTAVYYCAAGYRGSYKYYYWGQGTQVTVSS`
high polyreactivity

Cool, now `QVQLVESGGGLVQAGGSLRLSCAASGRILDYNAMGWYRQAPGKERELVADISGSGDSTYYADSVKGRFTISRDNAKNTVYLQMNSLKPEDTAVYYCAASGAWDWWLGPYDDYYWGQGTQVTVSS`
low polyreactivity
